# ASSAY_TARGET: hGIPR (Homo sapiens)
# Sequence (P48546 22-466): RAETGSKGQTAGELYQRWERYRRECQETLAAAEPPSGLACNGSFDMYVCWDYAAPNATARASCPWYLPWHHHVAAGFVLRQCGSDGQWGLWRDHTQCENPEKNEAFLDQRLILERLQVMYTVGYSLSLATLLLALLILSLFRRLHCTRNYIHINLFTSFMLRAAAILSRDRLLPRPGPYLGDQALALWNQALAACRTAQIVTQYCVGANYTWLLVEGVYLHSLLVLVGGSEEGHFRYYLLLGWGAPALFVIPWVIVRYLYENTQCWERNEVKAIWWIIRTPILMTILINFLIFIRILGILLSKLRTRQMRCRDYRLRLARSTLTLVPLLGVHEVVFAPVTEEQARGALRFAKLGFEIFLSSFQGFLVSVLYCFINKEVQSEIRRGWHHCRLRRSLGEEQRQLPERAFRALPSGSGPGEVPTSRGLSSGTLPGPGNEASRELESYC
# PROTOCOL_TEXT: Functional cAMP activity in the presence of 1% HSA
# Type: cell-based
# CONDITION_SUMMARY: read-out: cAMP Rel EC50, hGIPR
pEC50: −log10 of the molar value. Starred links: 1 amine or outer side, 2 acyl side, 3 side chain; linkers in the order of their positions; H or OH if unused. Non-standard residues stand in square brackets, D forms with d. Groups on a side chain read outwards from the residue. *: point of attachment. C20 diacid = O=C(O)CCCCCCCCCCCCCCCCCCC(=O)*; C18 diacid = O=C(O)CCCCCCCCCCCCCCCCC(=O)*; αMePhe(2-F) = C[C@](N)(Cc1ccccc1F)C(=O)O; γGlu = O=C(O)[C@H](CCC(=O)[*:2])N[*:1]; αMe4Pal = C[C@](N)(Cc1ccncc1)C(=O)O; 4Pal = N[C@@H](Cc1ccncc1)C(=O)O; αMeL = CC(C)C[C@](C)(N)C(=O)O; αMeS = C[C@](N)(CO)C(=O)O; Orn = NCCC[C@H](N)C(=O)O; AEEA = NCCOCCOCC(=O)O; Aib = CC(C)(N)C(=O)O
Quick reference for pEC50 among some substances
REPORTED_ENDPOINT: pEC50

SUBSTANCE	REPORTED
H-Y[Aib]QGTFTSD[4Pal]SK[αMeL]LDKK([γGlu-γGlu-C18 diacid])AQ[Aib]AFIEYLIE[Aib]GPSSGAPPPSGSEE-NH2 [Example 905]	7.98
H-Y[Aib]QGTFTSDFSK[αMeL]LDKK([AEEA-γGlu-C20 diacid])AQ[Aib]AFIEYLLAGGPSSGAPPPGGE-NH2 [Example 15]	7.44
H-Y[Aib]QGT[αMePhe(2-F)]TSD[4Pal][αMeS]I[αMeL]LD[Orn]K([γGlu-γGlu-C18 diacid])AQ[Aib][Orn]FI[dE]YLIEGGPSSGEPPPSGTEEE-NH2 [Example 540]	8.71
H-Y[Aib]QGTFTSD[4Pal]SQ[αMeL]LDKK([AEEA-AEEA-γGlu-C18 diacid])AQ[αMe4Pal]AFIEYLIE[Aib]GPSSGAPPPSGS-NH2 [Example 816]	7.80
H-Y[Aib]QGTFTSD[4Pal]SQ[αMeL]LDKK([γGlu-γGlu-C18 diacid])AQ[αMe4Pal]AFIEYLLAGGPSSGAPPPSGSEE-NH2 [Example 1036]	7.89
H-Y[Aib]QGTFTSDFS[Orn][αMeL]LDKK([AEEA-γGlu-C18 diacid])AQ[Aib]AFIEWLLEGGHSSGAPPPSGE-NH2 [Example 122]	7.49
